Target: native soluble IL-6R in human plasma (human, UniProt P08887)
Assay: ELISA 1, periplasmic extract; competitor IL-6; human plasma
metric.name: OD450 ratio sample/blank

# example entries with known answers
IL6RPMP105C2 (VHH) VHH: EVQLVESGGGLVQAGGSLRLSCAASGSIFRINAMGWYRQAPGEQRELVAAAISGGSTNYADFVKGRFTISRDNAKNTVYLQMNSLKPEDTAVYYCNALVVSHNYSDYVPFPDDYWGQGTQVTVSS    0.577
IL6RPMP101F3 (VHH) VHH: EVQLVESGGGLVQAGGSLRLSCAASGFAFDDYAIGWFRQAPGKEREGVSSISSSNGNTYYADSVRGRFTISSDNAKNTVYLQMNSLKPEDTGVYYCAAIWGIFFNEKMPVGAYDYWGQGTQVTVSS    0.758
IL6RPMP120G6 (VHH) VHH: EVQLVESGGDLVQTGGSLRLSCAASGITVSDRAMGWYRQAPGKQREMVAGVSRGGMTSYADSVKGRLTISRDNAKNSVYLQMNSLNPEDTAVYYCSAYYRYGSSVPQYWGQGTQVTVSS    0.236
IL6RPMP104E7 (VHH) VHH: EVQLVESGGGLVQAGGSLRLSCAAGGSIFSINAMGWYRQAPGKQRELVASITSGGSTTYADSVKGRFTISRDNAKDTVYLQMNSLKPEDTAVYYCNAHIRFPFPNDYWGQGTQVTVSS    2.04
IL6RPMP101A4 (VHH) VHH: EVQLVESGGGTVQAGGSLKLSCAASGRTFTNYAMGWFRQAPGKEREFVAAIAYATHFADSVKGRFTISRGNAKNTVYLQMNSLKPEDAAVYYCAADLSLSKMVSKITSDMDYWGKGTLVTVSS    0.792

1. IL6RPMP101B3 (VHH) VHH: EVQLVESGGGLVQAGGSLRLSCAASGSIFRINAMGWYRQAPGKQRELVAAAISGGSTNYADFVKGRFTISRDNAKNTVYLQMNSLKPEDTAVYYCNALVVSHNYSDYVPFPDDYWGQGTQVTVSS
2. IL6RPMP101G1 (VHH) VHH: EVQLVESGGGLVQPGGSLRLSCAASGGTLDYYAIGWFRQAPGKEREGVSCISSSDGSTYYASSVKGRFTVSRDKAKNTVYLQMNSLKPEDTAVYYCAFVFTTAQAMGVPNNPYEYDFWGQGTQVTVSS
input: Input pair: 1 , 2 . Output: entry with lower OD450 ratio sample/blank. I would appreciate it if you answered with the label of your choice.
output: 2

The reported measurements were obtained from patent US10618964B2.
